Listed sequences paired with reported REVEAL binding score, HLA-type B35
Test system: HLA-B35
Assay: REVEAL binding assay
Conditions: score as percentage of the signal generated by the positive control peptide

{"RECORD SEQUENCE": "LGRVIETLT", "REVEAL binding score, HLA-type B35 / %": 3.43}
{"RECORD SEQUENCE": "ATGNLPGCS", "REVEAL binding score, HLA-type B35 / %": 7.00}
{"RECORD SEQUENCE": "VIETLTSGF", "REVEAL binding score, HLA-type B35 / %": 2.39}
{"RECORD SEQUENCE": "IRNLGRVIE", "REVEAL binding score, HLA-type B35 / %": 1.98}
{"RECORD SEQUENCE": "SRNLGKVID", "REVEAL binding score, HLA-type B35 / %": 4.59}

Numbers sourced from patent US9550811B2.
